Biological target: UniProt P17812
Test: ADP-Glo assay, human CTPS1 enzyme inhibition
Type: biochemical
Conditions: wild-type human CTPS1, 25 nM enzyme; ADP-Glo; read-out: ADP-Glo_WT_hCTPS1—25 nM_IC50 (IC50)
Description: The enzyme inhibitory activities of the compounds of the invention against the target of interest were determined using the ADP-Glo™ assay (Promega). […] Purified human CTPS1 protein was prepared in 1× assay buffer to the final working protein concentration required for the reaction. […] This mixture was incubated for an appropriate amount of time within the determined linear phase of the reaction at 25 degrees C. under sealed plate conditions with constant agitation at 500 revolutions per minute (rpm). […]
Where a name gives a salt, the structure may show the parent alone.
assayEndpoint: IC50

>>> observedmeasurement("CCOc1cncc(-c2cnc(C(=O)N[C@@H](CCNC3CC3)c3cc(NS(=O)(=O)C4CC4)ccn3)s2)n1")
"50 to 100 nM"
>>> observedmeasurement("CCOc1cncc(-c2cnc(C(=O)N[C@]3(c4cccc(NS(=O)(=O)C(F)F)c4)C[C@@H](O)C3)s2)n1")
"5 to 25 nM"
>>> observedmeasurement("O=C(N[C@H](c1cc(NS(=O)(=O)C2CC2)ccn1)[C@H]1CCOC1)c1ncc(-c2cnn3ccc(Cl)cc23)s1 (single isomer, unassigned)")
"5 to 25 nM"
>>> observedmeasurement("CCOc1cncc(-c2ccc(C(=O)N[C@@H](c3cc(NS(=O)(=O)C4CC4)ccn3)[C@@H]3CCCO3)nc2)n1")
"25 to 50 nM"
>>> observedmeasurement("CCOc1cncc(-c2cnc(C(=O)N[C@@H](c3cc(NS(=O)(=O)C4CC4)ccn3)C(C)(C)O)s2)n1")
"25 to 50 nM"
>>> observedmeasurement("CCOc1cncc(-c2cnc(C(=O)N[C@H](CN3CCCC3)c3cccc(NS(=O)(=O)C(F)F)c3)s2)n1 (single isomer, unassigned)")
"25 to 50 nM"
>>> observedmeasurement("CCOc1cncc(-c2cnc(C(=O)N[C@@H](CN3CC[C@](C)(O)C3)c3cccc(NS(=O)(=O)C(F)F)c3)s2)n1 [I-209, formic acid salt]")
"5 to 25 nM"
>>> observedmeasurement("CCOc1cncc(-c2cnc(C(=O)N[C@H](c3cc(NS(=O)(=O)C4CC4)ccn3)[C@@H](C)O)s2)n1 [I-264]")
"5 to 25 nM"
>>> observedmeasurement("CN(C)C[C@H](NC(=O)c1ncc(-c2cnn3ccc(Cl)cc23)s1)c1cc(NS(=O)(=O)C2CC2)ccn1 [I-164, formic acid salt]")
"50 to 100 nM"
>>> observedmeasurement("O=C(NC(CCN1CCCCC1)c1cc(NS(=O)(=O)C2CC2)ccn1)c1ncc(-c2cnn3ccc(Cl)cc23)s1 (stereo not drawn)")
"25 to 50 nM"
>>> observedmeasurement("CCOc1cncc(-c2cnc(C(=O)N[C@H](CN3C[C@H]4C[C@@H]3CO4)c3cncc(NS(=O)(=O)C4CC4)n3)s2)n1 [I-253, formic acid salt]")
"50 to 100 nM"
>>> observedmeasurement("CCOc1cncc(-c2cnc(C(=O)N[C@@H](c3cc(NS(=O)(=O)C4CC4)ccn3)[C@@H]3CCCO3)s2)n1")
"5 to 25 nM"
>>> observedmeasurement("O=C(NCc1cc(NS(=O)(=O)C2CC2)ccn1)c1ccc(-c2cnn3ccc(Cl)cc23)cc1F")
"25 to 50 nM"
>>> observedmeasurement("CCOc1cncc(-c2ccc(C(=O)N[C@@H](COC)c3cc(NS(=O)(=O)C4CC4)ccn3)cc2)n1")
"5 to 25 nM"
>>> observedmeasurement("CCOc1cncc(-c2cnc(C(=O)N[C@@H](c3cc(NS(=O)(=O)C4CC4)ccn3)[C@H]3CN(C)CCO3)s2)n1")
"5 to 25 nM"
>>> observedmeasurement("CCOc1cncc(-c2cnc(C(=O)N[C@@H](CN3[C@@H]4CC[C@H]3COC4)c3cc(NS(=O)(=O)C4CC4)ccn3)s2)n1 (single isomer, unassigned)")
"50 to 100 nM"
>>> observedmeasurement("CCOc1cncc(-c2cnc(C(=O)N[C@H](c3cc(NS(=O)(=O)C4CC4)ccn3)[C@@H](C)CO)s2)n1")
"5 to 25 nM"
>>> observedmeasurement("CCOc1cncc(-c2cnc(C(=O)N[C@@H](C[C@@H]3CCCCN3C(C)C)c3cc(NS(=O)(=O)C4CC4)ccn3)s2)n1 (single isomer, unassigned)")
"> 100 nM"
>>> observedmeasurement("CCOc1cncc(-c2cnc(C(=O)N[C@H](c3cc(NS(=O)(=O)C4CC4)ccn3)[C@@H](C)N3C[C@H]4C[C@@H]3CO4)s2)n1")
"25 to 50 nM"
>>> observedmeasurement("CCOc1cncc(-c2cnc(C(=O)N[C@@H](CO[C@H]3CCOC3)c3cc(NS(=O)(=O)C4CC4)ccn3)s2)n1")
"25 to 50 nM"
>>> observedmeasurement("CCOc1cncc(-c2cnc(C(=O)N[C@H](CN3CCOC[C@@H]3C)c3cc(NS(=O)(=O)C4CC4)ccn3)s2)n1 (single isomer, unassigned)")
"≤ 5 nM"
>>> observedmeasurement("CCOc1cncc(-c2cnc(C(=O)N[C@H](CO[C@H]3CCOC3)c3cc(NS(=O)(=O)C4CC4)ccn3)s2)n1")
"5 to 25 nM"
>>> observedmeasurement("CCOc1cncc(-c2cnc(C(=O)N[C@@H](CCN3CCCCC3)c3cccc(NS(=O)(=O)C(F)F)c3)s2)n1")
"> 100 nM"
>>> observedmeasurement("CCOc1cncc(-c2cnc(C(=O)N(C)[C@H](c3cc(NS(=O)(=O)C4CC4)ccn3)[C@H]3CCOC3)s2)n1")
"> 100 nM"
>>> observedmeasurement("CCOc1cncc(-c2cnc(C(=O)N[C@@H](CN3CCOCC3)c3cc(NS(=O)(=O)C4CC4)ncn3)s2)n1 [I-246]")
"5 to 25 nM"
>>> observedmeasurement("CCOc1cncc(-c2cnc(C(=O)N[C@H](CF)c3cc(NS(=O)(=O)C4CC4)ccn3)s2)n1")
"≤ 5 nM"
>>> observedmeasurement("CCOc1cncc(-c2ccc(C(=O)N[C@H](CN3CCOCC3)c3cc(NS(=O)(=O)C4CC4)ccn3)c(F)c2)n1")
"5 to 25 nM"

----------
Target: human CTPS1 (Homo sapiens, UniProt P17812)
Sequence (P17812 whole entry): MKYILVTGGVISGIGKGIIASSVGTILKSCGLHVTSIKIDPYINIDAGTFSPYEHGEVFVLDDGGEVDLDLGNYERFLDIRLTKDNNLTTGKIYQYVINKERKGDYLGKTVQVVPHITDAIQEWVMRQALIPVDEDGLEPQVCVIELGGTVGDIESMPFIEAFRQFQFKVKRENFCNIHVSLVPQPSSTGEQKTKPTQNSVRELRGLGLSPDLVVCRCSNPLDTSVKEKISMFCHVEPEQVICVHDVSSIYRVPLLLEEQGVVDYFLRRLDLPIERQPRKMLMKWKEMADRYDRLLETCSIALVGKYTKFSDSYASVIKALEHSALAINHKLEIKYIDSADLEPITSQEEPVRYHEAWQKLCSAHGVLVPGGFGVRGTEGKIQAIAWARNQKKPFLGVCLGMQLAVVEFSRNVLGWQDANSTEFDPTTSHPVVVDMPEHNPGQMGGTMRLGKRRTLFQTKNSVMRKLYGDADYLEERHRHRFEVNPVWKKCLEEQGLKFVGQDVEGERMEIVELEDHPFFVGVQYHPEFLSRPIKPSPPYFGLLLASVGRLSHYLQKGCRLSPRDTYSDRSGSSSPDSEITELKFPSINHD
Assay: ADP-Glo assay, human CTPS1 enzyme inhibition
Format: biochemical
Details: wild-type human CTPS1, 25 nM enzyme; ADP-Glo; read-out: ADP-Glo_WT_hCTPS1—25 nM_IC50 (IC50)
pIC50: −log10 of the molar value.
assayEndpoint: pIC50

>>> observedmeasurement("CCOc1cncc(-c2cnc(C(=O)N[C@@H](c3cc(NS(=O)(=O)C4CC4)ccn3)[C@H]3CCN(CCF)C3)s2)n1")
"≥ 8.30"
>>> observedmeasurement("CCOc1cncc(-c2cnc(C(=O)N[C@@H](c3cc(NS(=O)(=O)C4CC4)ncn3)[C@@H]3CCOC3)s2)n1")
"7.60 to 8.30"
>>> observedmeasurement("CCOc1cncc(-c2cnc(C(=O)N[C@H](COC)c3cccc(NS(=O)(=O)C(F)F)c3)s2)n1")
"7.60 to 8.30"
>>> observedmeasurement("O=C(N[C@H](c1cc(NS(=O)(=O)C2CC2)ccn1)[C@@H]1CCOC1)c1ncc(-c2cnn3ccc(Cl)cc23)s1 (single isomer, unassigned)")
"7.60 to 8.30"
>>> observedmeasurement("CCOc1cncc(-c2cnc(C(=O)NC3(c4cc(NS(=O)(=O)C5CC5)ccn4)CC3)s2)n1")
"7.60 to 8.30"
>>> observedmeasurement("CCOc1cncc(-c2cnc(C(=O)N(C)[C@H](CN3CCOCC3)c3cc(NS(=O)(=O)C4CC4)ccn3)s2)n1")
"< 7.00"
>>> observedmeasurement("CCOc1cncc(-c2cnc(C(=O)N[C@H](CC(C)(C)N(C)C)c3cc(NS(=O)(=O)C4CC4)ccn3)s2)n1")
"7.00 to 7.30"
>>> observedmeasurement("CCOc1cncc(-c2cnc(C(=O)N[C@@H](C[C@@H]3COCCN3C)c3cccc(NS(=O)(=O)C(F)F)c3)s2)n1")
"7.30 to 7.60"
>>> observedmeasurement("O=C(N[C@H](CN1CCCC1)c1cccc(NS(=O)(=O)C(F)F)c1)c1ncc(-c2cnn3ccc(Cl)cc23)s1")
"7.30 to 7.60"
>>> observedmeasurement("CCOc1cncc(-c2cnc(C(=O)N[C@H](c3cc(NS(=O)(=O)C4CC4)ccn3)C(C)(C)O)s2)n1")
"7.60 to 8.30"
>>> observedmeasurement("CCOc1cncc(-c2cnc(C(=O)N[C@@]3(c4cc(NS(=O)(=O)C5CC5)ccn4)CCOC3)s2)n1 (single isomer, unassigned)")
"7.60 to 8.30"
>>> observedmeasurement("CCOc1cncc(-c2ccc(C(=O)N[C@@H](CN3CCOCC3)c3cc(NS(=O)(=O)C4CC4)ccn3)c(F)c2)n1")
"7.00 to 7.30"
>>> observedmeasurement("CCOc1cncc(-c2cnc(C(=O)N[C@H](CN3CC[C@@]4(CCOC4)C3)c3cc(NS(=O)(=O)C4CC4)ccn3)s2)n1")
"7.60 to 8.30"
>>> observedmeasurement("CCOc1cncc(-c2cnc(C(=O)N[C@@H](CN3CCN(C4CC4)CC3)c3cc(NS(=O)(=O)C4CC4)ncn3)s2)n1")
"7.30 to 7.60"
>>> observedmeasurement("CCOc1cncc(-c2cnc(C(=O)N[C@H](COC)c3ccnc(NS(=O)(=O)C4CC4)n3)s2)n1")
"7.30 to 7.60"
>>> observedmeasurement("CCOc1cncc(-c2cnc(C(=O)N[C@H](c3cc(NS(=O)(=O)C4CC4)ccn3)C(C)(C)CN(C)C)s2)n1 (single isomer, unassigned)")
"7.00 to 7.30"

All figures here come from patent US20250270200A1.
